Biological target: T1, human erythropoietin receptor (EpoR) on UT-7/Epo cells (human, UniProt P19235 25-508)
T1 sequence (looked up): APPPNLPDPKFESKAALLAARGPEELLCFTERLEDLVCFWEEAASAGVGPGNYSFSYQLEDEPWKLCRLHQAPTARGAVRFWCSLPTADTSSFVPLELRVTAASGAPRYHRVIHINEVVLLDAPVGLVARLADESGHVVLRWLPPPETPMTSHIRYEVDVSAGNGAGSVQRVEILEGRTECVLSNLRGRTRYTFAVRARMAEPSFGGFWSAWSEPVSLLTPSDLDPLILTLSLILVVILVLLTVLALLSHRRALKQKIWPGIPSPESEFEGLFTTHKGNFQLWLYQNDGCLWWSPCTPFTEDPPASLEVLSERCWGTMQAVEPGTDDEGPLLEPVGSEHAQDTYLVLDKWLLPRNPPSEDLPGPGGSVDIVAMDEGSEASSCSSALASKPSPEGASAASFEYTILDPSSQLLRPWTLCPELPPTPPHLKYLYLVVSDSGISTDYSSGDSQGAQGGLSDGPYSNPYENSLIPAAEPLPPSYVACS
Assay: cell-based or functional assay
READOUT TYPE: Emax (cell proliferation, absorbance)
The reply should contain only the number, in absorbance.

Take a look at these entries with their results.
- BINDER: "Ab12.119 (antibody, IgG2, V domains shown) VH: QVQLQESGPGLVKPSETLSLTCTVSGASISSYYWSWIRQPPGKGLEWIGYIYGSGSTNYNPSLKSRVTISVDTSKNQFSLKLRSVTAADTAVYYCARERLGIGDYWGQGTLVTVSS VL: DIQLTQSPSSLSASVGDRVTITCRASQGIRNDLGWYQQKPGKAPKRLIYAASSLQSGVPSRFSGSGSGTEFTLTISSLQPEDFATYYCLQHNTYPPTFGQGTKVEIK"
  Emax (cell proliferation, absorbance): 2.53
- BINDER: "Ab12.122 (antibody, IgG2, V domains shown) VH: QVQLQESGPGLVKPSETLSLTCTVSGASISSYYWSWIRQPPGKGLEWIGYIYGEGSTNYNPSLKSRVTISVDTSKNQFSLKLRSVTAADTAVYYCARERLGIGDYWGQGTLVTVSS VL: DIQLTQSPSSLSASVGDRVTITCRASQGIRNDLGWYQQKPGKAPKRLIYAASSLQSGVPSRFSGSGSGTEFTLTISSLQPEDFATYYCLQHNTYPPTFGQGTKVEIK"
  Emax (cell proliferation, absorbance): 2.4

Q: Given Ab12.121 (antibody, IgG2, V domains shown) VH: QVQLQESGPGLVKPSETLSLTCTVSGASISSYYWSWIRQPPGKGLEWIGYIGGSGSTNYNPSLKSRVTISVDTSKNQFSLKLRSVTAADTAVYYCARERLGIGDYWGQGTLVTVSS VL: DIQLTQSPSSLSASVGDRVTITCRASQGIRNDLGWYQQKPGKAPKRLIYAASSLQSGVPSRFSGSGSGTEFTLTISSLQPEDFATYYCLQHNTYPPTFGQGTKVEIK , state its recorded Emax (cell proliferation, absorbance).
A: 2.3

Q: Quick one: Ab12.56 (antibody, V domains shown) VH: QVQLQESGPGLVKPSETLSLTCTVSGASISSYYWSWIRQPPGKGLEWIGYIAGTGSTNYNPSLKSRVTISVDTSKNQFSLKLRSVTAADTAVYYCARERLGIGDYWGQGTLVTVSS VL: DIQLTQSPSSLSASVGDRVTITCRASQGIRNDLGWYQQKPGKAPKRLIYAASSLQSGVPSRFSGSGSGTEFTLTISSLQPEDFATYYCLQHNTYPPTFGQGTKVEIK
A: 2.51
